This collection of values is drawn from patent US20210363269A1.

ASSAYED_SYSTEM: T1, C57BL/6 mouse SIRP-α D1 domain (mouse (C57BL/6 strain), UniProt P97797 32-148)
T1 sequence: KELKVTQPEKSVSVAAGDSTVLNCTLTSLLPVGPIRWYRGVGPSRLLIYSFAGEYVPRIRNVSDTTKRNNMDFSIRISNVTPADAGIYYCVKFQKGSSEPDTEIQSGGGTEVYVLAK
ASSAY_NAME: SPR, ProteOn, antibody on chip
REPORTED_METRIC: kon

>  <BINDER>
AB21c (antibody, mouse IgG2a, V domains shown, Full-length mouse IgG2a) VH: DVQLVESGGGVVRPGESLRLSCAASGFTFSSNAMSWVRQAPGKGLEWLAGISAGGSDTYYPASVKGRFTISRDNSKNTLYLQMNTLTAEDTAVYYCARETWNHLFDYWGLGTLVTVSS VL: ALTQPASVSANPGETVKIACSGGDYYSYYYGWYQQKAPGSALVTVIYSDDKRPSDIPSRFSGSASGSTATLTITGVRAEDEAVYYCGGYDYSTYANAFGAGTTLTVL

>  <MEASUREMENT>
276000 M⁻¹ s⁻¹

$$$$
>  <BINDER>
AB3c (antibody, mouse IgG2a, V domains shown, Full-length mouse IgG2a) VH: AVTLDESGGGLQTPGGALSLVCKASGFIFSDYGMNWVRQAPGKGLEFVAQITSGSRTYYGAAVKGRATISRDNRQSTVKLQLNNLRAEDTGIYFCARDFGSGVGSIDAWGNGTEVIVSS VL: ALTQPASVSANLGGTVKITCSGSRGRYGWYQQRSPGSAPVTVIYRDNQRPSNIPSRFSSSTSGSTSTLTITGVQADDESVYFCGSYDGSIDIFGAGTTLTVL

>  <MEASUREMENT>
412000 M⁻¹ s⁻¹

$$$$
>  <BINDER>
AB25c (antibody, mouse IgG2a, V domains shown, Full-length mouse IgG2a) VH: DVQLVESGGGVVRPGESLRLSCEASGFTFSSNAMSWVRQAPGKGLEWVAGISSGSDTYYGDSVKGRLTISRDNSKNILYLQMNSLTAEDTAVYYCARETWNHLFDYWGLGTLVTVSS VL: ALTQPASVSANPGETVEITCSGGSYSSYYYAWYQQKSPGSAPVTLIYSDDKRPSNIPSRFSGSASGSTATLTITGVRAEDEAVYFCGGYDQSSYTNPFGAGTTLTVL

>  <MEASUREMENT>
142000 M⁻¹ s⁻¹

$$$$
>  <BINDER>
AB66c (antibody, mouse IgG2a, V domains shown, Full-length mouse IgG2a) VH: DVQLVESGGGVVRPGESLRLSCAASGFTFSSYAMSWVRQAPGKGLEWLAGISAGGSDTYYIDSVKGRFTISRDNPKNSLYLQMSSLTAEDTAVYYCARETWNHLFDYWGLGTLVTVSS VL: ALTQPASVSANPGETVKITCSGGDYYSTYYAWYQQKSPGSAPVTVIHSDDKRPSDIPSRFSGSASGSAATLIITGVRVEDEAVYYCGGYDGRTYINTFGAGTTLTVL

>  <MEASUREMENT>
107000 M⁻¹ s⁻¹

$$$$
